All values here come from patent US11530221B2.

I'd appreciate it if you could supply pIC50 values for the items below.
target: LCK (Homo sapiens, UniProt P06239); assay: IC50 inhibitory activity against LCK kinase; assay type: biochemical
Sequence (P06239 whole entry): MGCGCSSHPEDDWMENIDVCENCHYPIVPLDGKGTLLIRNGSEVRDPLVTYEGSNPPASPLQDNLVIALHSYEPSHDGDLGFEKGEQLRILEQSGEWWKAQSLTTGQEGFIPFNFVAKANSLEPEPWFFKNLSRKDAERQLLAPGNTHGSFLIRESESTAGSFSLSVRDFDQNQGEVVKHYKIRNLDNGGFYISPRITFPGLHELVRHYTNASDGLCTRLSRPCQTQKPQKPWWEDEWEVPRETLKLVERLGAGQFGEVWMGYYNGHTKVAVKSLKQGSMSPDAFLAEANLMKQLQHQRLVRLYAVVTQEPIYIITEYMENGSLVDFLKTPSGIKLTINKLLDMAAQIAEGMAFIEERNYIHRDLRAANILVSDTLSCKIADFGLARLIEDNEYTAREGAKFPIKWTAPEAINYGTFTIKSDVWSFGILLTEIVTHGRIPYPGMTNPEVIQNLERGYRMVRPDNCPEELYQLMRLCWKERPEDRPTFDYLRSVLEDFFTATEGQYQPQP
pIC50: −log10 of the molar value. Square brackets hold non-standard residues; d marks the D form. Peptide text beside a SMILES is read from it. * marks the point of attachment. X1 = Cc1ccc(Nc2ncc3c(n2)N(C)C(=O)N(c2cc(C(=O)*)ccc2C)C3)cn1; Chg = N[C@H](C(=O)O)C1CCCCC1; Aze = O=C(O)[C@@H]1CCN1; Ac3c = NC1(C(=O)O)CC1; Aib = CC(C)(N)C(=O)O

Task: Name the reported pIC50 value associated with the molecule Cc1ccc(Nc2ncc3c(n2)N(C)C(=O)N(c2cc(C(=O)N[C@H](C(=O)N4CCC[C@H]4C(=O)NC4(C(=O)N[C@@H](CC(C)C)C(=O)N(C)C)CC4)C(C)C)ccc2C)C3)cn1 [Example 4] (X1-VP[Ac3c]L-NMe2)
Result: 6.70 to 9.00

Task: If you can, please state the reported pIC50 value of Cc1ccc(Nc2ncc3c(n2)N(C)C(=O)N(c2cc(C(=O)N[C@H](C(=O)N4CCC[C@H]4C(=O)NC(C)(C)C(=O)N[C@@H](CC(C)C)C(=O)N(C)C)C4CCCCC4)ccc2C)C3)cn1 [Example 19] (X1-[Chg]P[Aib]L-NMe2) .
Result: 6.70 to 9.00

Task: I have this molecule here, Cc1ccc(Nc2ncc3c(n2)N(C)C(=O)N(c2cc(C(=O)N[C@H](C(=O)N4CC[C@H]4C(=O)NC(C)(C)C(=O)N[C@@H](CC(C)C)C(=O)N(C)C)C(C)C)ccc2C)C3)cn1 [Example 15] (X1-V[Aze][Aib]L-NMe2) , and I need its recorded pIC50.
Result: 6.40 to 6.70

Task: Quick one: pIC50 of Cc1ccc(Nc2ncc3c(n2)N(C)C(=O)N(c2cc(C(=O)N[C@@H](C)C(=O)N4CCC[C@H]4C(=O)NC(C)(C)C(=O)N[C@H](C(=O)N(C)C)C(C)C)ccc2C)C3)cn1 [Example 25] (X1-AP[Aib]V-NMe2) ?
Result: 6.40 to 6.70

----------
For each of the compounds below, state its IC50.

Task: # get_value(readout= IC50, system= LYN (Homo sapiens)) for CC1=N[C@H](Cc2ccccc2)C(=O)Nc2cc(C(=O)Nc3ccc(C)c(N4Cc5cnc(Nc6ccc(C)nc6)nc5N(C)C4=O)c3)ccc21
Result: 0.001 to 0.2 µM

Task: What value of IC50 on LYN (Homo sapiens) does Cc1ccc(Nc2ncc3c(n2)N(C)C(=O)N(c2cc(NC(=O)c4ccc5c(c4)N(Cc4ccccc4)C(=O)[C@H](CC(C)C)N=C5c4ccccc4)ccc2C)C3)cn1 have?
Result: 0.001 to 0.2 µM

Task: Which measured IC50 belongs to C=CCN1C(=O)[C@H](CC(C)C)N=C(c2ccccc2)c2ccc(C(=O)Nc3ccc(C)c(N4Cc5cnc(Nc6ccc(C)nc6)nc5N(C)C4=O)c3)cc21 , tested on LYN (Homo sapiens)?
Result: 0.001 to 0.2 µM

----------
target: c-Src (Homo sapiens); experiment: IC50 inhibitory activity against c-Src kinase; assay type: biochemical; settings: read-out: c-Src IC50
Sequence (P12931 whole entry): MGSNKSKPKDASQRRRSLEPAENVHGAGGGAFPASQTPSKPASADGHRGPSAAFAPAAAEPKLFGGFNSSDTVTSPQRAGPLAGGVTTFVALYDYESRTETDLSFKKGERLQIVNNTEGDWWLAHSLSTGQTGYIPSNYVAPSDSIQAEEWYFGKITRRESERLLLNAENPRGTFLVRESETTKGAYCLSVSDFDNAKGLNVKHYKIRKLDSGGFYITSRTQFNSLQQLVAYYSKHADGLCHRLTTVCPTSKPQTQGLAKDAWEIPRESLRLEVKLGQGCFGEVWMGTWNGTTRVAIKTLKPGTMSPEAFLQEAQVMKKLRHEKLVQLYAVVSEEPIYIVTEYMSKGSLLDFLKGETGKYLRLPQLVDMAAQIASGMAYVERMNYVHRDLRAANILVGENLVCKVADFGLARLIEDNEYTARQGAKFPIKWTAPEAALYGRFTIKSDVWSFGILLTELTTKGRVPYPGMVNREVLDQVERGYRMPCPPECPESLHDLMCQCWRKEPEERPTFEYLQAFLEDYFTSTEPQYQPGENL
pIC50: −log10 of the molar value.
QUANTITY_KIND: pIC50

Task: Field request: pIC50 | item: Cc1ccc(Nc2ncc3c(n2)N(C)C(=O)N(c2cc(C(=O)N4C[C@@H](C(=O)NCCc5c[nH]c6ccccc56)[C@H](C(=O)NCc5ccc(Cl)cc5)C4)ccc2C)C3)cn1
Result: 6.70 to 9.00

Task: Fill in the blank: the reported pIC50 of Cc1ccc(Nc2ncc3c(n2)N(C)C(=O)N(c2cc(C(=O)N[C@H](C(=O)N4CCC[C@@H]4C(=O)N[C@H](C(=O)N[C@H](C)c4ccccc4)C(C)C)C(C)C)ccc2C)C3)cn1 is ____.
Result: < 6.22

Task: Record request: pIC50 value, item Cc1ccc(Nc2ncc3c(n2)N(C)C(=O)N(c2cc(NC(=O)c4ccc5c(c4)NC(=O)[C@H](C)N=C5c4ccccc4)ccc2C)C3)cn1
Result: 6.70 to 9.00
